Tested Target: LILRA1 (human (not printed on the sheet), UniProt O75019)
Sequence (O75019 17-461 limits assumed): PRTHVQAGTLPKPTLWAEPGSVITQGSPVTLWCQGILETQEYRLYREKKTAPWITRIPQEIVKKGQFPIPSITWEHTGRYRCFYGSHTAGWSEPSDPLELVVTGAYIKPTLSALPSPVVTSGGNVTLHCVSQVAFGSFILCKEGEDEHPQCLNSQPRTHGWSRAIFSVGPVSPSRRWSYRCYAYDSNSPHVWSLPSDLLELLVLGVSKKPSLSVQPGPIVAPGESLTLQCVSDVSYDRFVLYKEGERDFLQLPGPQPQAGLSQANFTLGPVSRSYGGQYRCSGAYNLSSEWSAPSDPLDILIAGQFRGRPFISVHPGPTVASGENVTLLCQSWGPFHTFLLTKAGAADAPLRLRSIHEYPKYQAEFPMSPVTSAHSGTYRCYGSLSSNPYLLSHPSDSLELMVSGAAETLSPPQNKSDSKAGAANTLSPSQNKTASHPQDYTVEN
Method Notes: LILR reporter cells on coated antibody, GFP positive (%)
Parameter Measured: binding result

h193 antibody No. 28 (h193-H5 / h193-K2) (antibody, V domains shown) VH: EVQLVESGGGLVQPGGSLRLSCAASGFSLSSSYWISWVRQAPGKGLEWIGVIDSGSVGITYYATWAKGRFTISRDNSKNTLYLQMNSLRAEDTAVYYCARHGDNWALDLWGQGTLVTVSS VL: DLVMTQSPSTLSASVGDRVTITCQASQSINSWLAWYQQKPGKPPKLLIYKASTLASGVSSRFSGSGSGTEFTLTISSLQPDDVATYYCQHGYIRGDLDNVFGGGTKVEIK = no binding
h193 antibody No. 20 (h193-H3 / h193-K2) (antibody, V domains shown) VH: EVQLVESGGGLVQPGGSLRLSCAASGFSLSSSYWISWVRQAPGKGLEWIGSIDSGSVGITYYATWAKGRFTISRDNSKNTLYLQMNSLRAEDTAVYYCARHGDNWALDLWGQGTLVTVSS VL: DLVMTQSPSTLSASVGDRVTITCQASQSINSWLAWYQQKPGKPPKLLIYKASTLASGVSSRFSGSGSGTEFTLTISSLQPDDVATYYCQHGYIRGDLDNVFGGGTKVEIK = no binding
h193 antibody No. 19 (h193-H3 / h193-K1) (antibody, V domains shown) VH: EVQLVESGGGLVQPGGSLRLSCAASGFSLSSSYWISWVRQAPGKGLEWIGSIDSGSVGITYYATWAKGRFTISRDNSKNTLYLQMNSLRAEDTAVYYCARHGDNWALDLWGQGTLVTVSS VL: DIQMTQSPSTLSASVGDRVTITCQASQSINSWLAWYQQKPGKAPKLLIYKASTLASGVPSRFSGSGSGTEFTLTISSLQPDDFATYYCQHGYIRGDLDNVFGGGTKVEIK = no binding
h193 antibody No. 27 (h193-H5 / h193-K1) (antibody, V domains shown) VH: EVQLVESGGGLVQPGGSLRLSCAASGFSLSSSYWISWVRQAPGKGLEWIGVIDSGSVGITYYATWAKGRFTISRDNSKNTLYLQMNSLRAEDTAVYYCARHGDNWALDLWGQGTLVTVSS VL: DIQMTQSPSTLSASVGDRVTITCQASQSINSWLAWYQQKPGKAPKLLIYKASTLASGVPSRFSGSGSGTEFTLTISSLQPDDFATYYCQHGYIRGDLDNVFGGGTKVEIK = no binding
